Molecular target: TRKA (Homo sapiens (Human), UniProt P04629)
Sequence (P04629 441-796): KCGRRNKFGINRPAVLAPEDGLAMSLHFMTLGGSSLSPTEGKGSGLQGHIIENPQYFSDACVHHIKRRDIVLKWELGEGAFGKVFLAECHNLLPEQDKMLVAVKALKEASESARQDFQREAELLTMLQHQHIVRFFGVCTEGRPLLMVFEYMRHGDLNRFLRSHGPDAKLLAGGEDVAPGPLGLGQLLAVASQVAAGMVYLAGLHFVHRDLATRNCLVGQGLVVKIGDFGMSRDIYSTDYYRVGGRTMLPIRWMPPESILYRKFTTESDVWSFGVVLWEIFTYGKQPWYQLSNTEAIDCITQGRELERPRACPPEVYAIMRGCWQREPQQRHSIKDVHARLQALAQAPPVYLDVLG
Assay: Isolated TRK enzyme assay (HTRF KinEASE-TK), PV3144 TrkA enzyme assay
Conditions: arithmetic mean where more than one reading
measured.attribute: IC50 (nM)

> print(dat)
                                    molecule  measured.attribute  numeric.value
 1  Cc1cc(C(F)(F)F)nn1CC(=O)Nc1cncc(C(=O)c2cn(C(C)C)c3ccncc23)c1                IC50           14.3
 2  CC(C)(CO)n1cc(C(=O)c2cncc(NC(=O)Cn3cc(C(F)(F)F)nn3)c2)c2cnccc21                IC50           9.86
 3  COCc1cn(CC(=O)Nc2cc(C(=O)c3cn(C(C)C)c4ccncc34)ccn2)nn1                IC50            904
 4  CC(CO)n1cc(C(=O)c2cncc(NC(=O)Cc3ccc(F)cn3)c2)c2cnccc21 (single isomer, unassigned) [Example 68]                IC50            201
 5  CC(CO)n1cc(C(=O)c2cncc(NC(=O)Cn3ccc(C(F)(F)F)n3)c2)c2cnccc21 (stereo not drawn) [Example 60]                IC50           44.7
 6  CC(C)c1cn(CC(=O)Nc2cncc(C(=O)c3cn(C(C)CO)c4ccncc34)c2)nn1 (single isomer, unassigned) [Example 70]                IC50           65.6
 7  CC(C)n1cc(C(=O)c2ccnc(NC(=O)Cn3nccn3)c2)c2cnccc21                IC50            775
 8  CC(C)n1cc(C(=O)c2ccnc(NC(=O)Cc3coc(C4CC4)n3)c2)c2cnccc21                IC50           13.6
 9  CC(C)n1cc(C(=O)c2cncc(NC(=O)Cc3ccc(F)cn3)c2)c2cncc(F)c21                IC50           68.4
10  CC(C)c1cn(CC(=O)Nc2cc(C(=O)c3cn(C4COC4)c4ccncc34)ccn2)nn1                IC50            186
11  O=C(Cn1cc(C(F)(F)F)nn1)Nc1cc(C(=O)c2cn(CCO)c3ccncc23)ccn1                IC50            342
12  Cc1cc(C(F)(F)F)nn1CC(=O)Nc1cncc(C(=O)c2cn(C(C)C)c3c(F)cncc23)c1                IC50           11.4
13  CC(C)n1cc(C(=O)c2ccnc(NC(=O)Cc3ccccc3)c2)c2cnccc21                IC50             64
14  CC(CO)n1cc(C(=O)c2cncc(NC(=O)Cn3cc(C(F)(F)F)cn3)c2)c2cncc(F)c21 (single isomer, unassigned) [Example 219]                IC50           15.2
15  CC(C)n1cc(C(=O)c2cc(NC(=O)Cn3cc(C(F)(F)F)nn3)ccn2)c2cncc(F)c21                IC50            344
16  CC(CO)n1cc(C(=O)c2cncc(NC(=O)Cc3cccc(C(F)(F)F)c3)c2)c2cnccc21 (single isomer, unassigned) [Example 36]                IC50           44.7
17  Cc1ccnn1CC(=O)Nc1cncc(C(=O)c2cn(C(C)C)c3ccncc23)c1                IC50           2600
18  CC(C)n1cc(C(=O)c2cncc(NC(=O)Cn3cc(C(F)(F)F)cn3)c2)c2cncc(F)c21                IC50           9.66
19  CC(C)n1cc(C(=O)c2ccnc(NC(=O)Cc3ccc(Cl)c(Cl)c3)c2)c2cnccc21                IC50           5.68
20  CC(C)n1cc(C(=O)c2ccnc(NC(=O)Cc3ccc(C(F)(F)F)cc3)c2)c2cnccc21                IC50            5.3
21  CC(C)n1cc(C(=O)c2ccnc(NC(=O)Cn3cc(C(C)(C)O)nn3)c2)c2cnccc21                IC50            477
22  CC(CO)n1cc(C(=O)c2cncc(NC(=O)Cn3ccc(C(F)(F)F)n3)c2)c2cncc(F)c21 (single isomer, unassigned) [Example 208]                IC50           29.7
23  CC(C)n1cc(C(=O)c2cncc(NC(=O)Cn3ccc(C(F)(F)F)n3)c2)c2cnccc21                IC50           27.1
24  CC(C)n1cc(C(=O)c2ccnc(NC(=O)Cn3cncn3)c2)c2cnccc21                IC50          10100
25  Cc1cc(C(F)(F)F)nn1CC(=O)Nc1cc(C(=O)c2cn(CCO)c3ccncc23)ccn1                IC50           83.9
26  CC(C)n1cc(C(=O)c2cncc(NC(=O)Cc3ccc(C#N)cc3)c2)c2cnccc21                IC50            180
27  COc1ncc(C(=O)c2cn(C(C)C)c3ccncc23)cc1NC(=O)Cn1nc(C(F)(F)F)cc1C                IC50           33.8
28  COc1ccc(CC(=O)Nc2cncc(C(=O)c3cn(C(C)C)c4ccncc34)c2)cc1                IC50            147
29  CC(CO)n1cc(C(=O)c2cc(NC(=O)Cc3ccc(Cl)cn3)ccn2)c2cnccc21 (single isomer, unassigned) [Example 86]                IC50           93.2
30  O=C(Cc1cccc(Cl)c1)Nc1cc(C(=O)c2cn(CCO)c3ccncc23)ccn1                IC50            200
